system: Bovine aortic endothelial cells (BAEC); assay: Colony assay on vascular endothelial cells with 60Co γ-ray irradiation; assay type: cell-based; settings: 10 μM, 24 hours, no irradiation
outcome_measure: SF (cell surviving fraction), administration alone

INSERT INTO measurements (compound, value) VALUES
  ('CCCCCCCCCCCCCCCC(=O)OCC(O)CO[C@H]1O[C@H](CS(=O)(=O)[O-])[C@@H](O)[C@H](O)[C@H]1O.[Na+] (stereo partly drawn)', 0.9553),
  ('CCCCCCCCCCCCCCCCCC(=O)OCC(CO[C@@H]1O[C@H](CS(=O)(=O)[O-])[C@@H](O)[C@H](O)[C@H]1O)OC(=O)CCCCCCCCCCCCCCCCC.[Na+] (stereo partly drawn)', 0.7190),
  ('CCCCCCCC/C=C\CCCCCCCC(=O)OCC(O)CO[C@H]1O[C@H](CS(=O)(=O)[O-])[C@@H](O)[C@H](O)[C@H]1O.[Na+] (stereo partly drawn)', 1.0392);
